system.under.test: UniProtKB P20618
Sequence (P20618 whole entry): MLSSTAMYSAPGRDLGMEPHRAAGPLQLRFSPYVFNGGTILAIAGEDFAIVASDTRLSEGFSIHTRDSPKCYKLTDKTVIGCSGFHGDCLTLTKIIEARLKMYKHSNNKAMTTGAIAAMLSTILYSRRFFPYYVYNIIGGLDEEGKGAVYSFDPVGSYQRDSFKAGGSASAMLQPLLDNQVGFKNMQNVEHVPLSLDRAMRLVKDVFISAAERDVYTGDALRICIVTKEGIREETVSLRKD
method.notes: Negative allosteric modulation of SDS-activated human erythrocytes 20S proteasome caspase like activity at lower concentration using Z-LLE-AMC as substrate measured every 2 mins up to 60 mins by fluorescence assay
Active and inactive are the calls of the source. The calls are words filed in the database; no cut-off is given here. Residues, ends and D or L forms follow the SMILES beside them.
result.type: Activity

INSERT INTO measurements (compound, system_under_test, result) VALUES
  ('CC(C)C[C@H](NC(=O)[C@H](Cc1ccc(O)cc1)NC(=O)[C@H](CCCNC(=N)N)NC(=O)[C@H](CCCNC(=N)N)NC(=O)[C@@H](N)CCCNC(=N)N)C(=O)N1CCC[C@H]1C(=O)N[C@@H](CCCNC(=N)N)C(=O)N[C@@H](Cc1c[nH]c2ccccc12)C(=O)NCC(N)=O (H-RRRYLPRWG-NH2)', 'UniProtKB P20618', 'Active'),
  ('CC(C)C[C@H](NC(=O)[C@H](Cc1ccc(O)cc1)NC(=O)[C@@H]1CCCN1C(=O)[C@@H]1CCCN1C(=O)[C@H](CCCNC(=N)N)NC(=O)[C@@H]1CCCN1C(=O)[C@H](CCCNC(=N)N)NC(=O)[C@H](CCCNC(=N)N)NC(=O)[C@@H](N)CCCNC(=N)N)C(=O)N1CCC[C@H]1C(=O)N[C@@H](CCCNC(=N)N)C(=O)N[C@@H](Cc1c[nH]c2ccccc12)C(=O)NCC(=O)O (H-RRRPRPPYLPRWG-OH)', 'UniProtKB P20618', 'Active'),
  ('CC(C)C[C@H](NC(=O)[C@H](Cc1ccc(O)cc1)NC(=O)[C@H](CCCNC(=N)N)NC(=O)[C@H](CCCNC(=N)N)NC(=O)[C@@H](N)CCCNC(=N)N)C(=O)N1CCC[C@H]1C(=O)N[C@@H](CCCNC(=N)N)C(=O)N[C@@H](Cc1ccc(O)cc1)C(=O)N[C@@H](C)C(N)=O (H-RRRYLPRYA-NH2)', 'UniProtKB P20618', 'Active');

----------
system.under.test: 20S proteasome (Homo sapiens) (UniProt P49721+P20618+P28074+P28062+P28065+P28072+P25786+P25787+P25788+P25789+P28066+P60900+O14818+Q8TAA3+P40306+A5LHX3+P49720+P28070+Q99436)
method.notes: Negative allosteric modulation of SDS-activated human erythrocytes 20S proteasome assessed as reduction in yeast enolase degradation at 1 uM after 4 hr by SDS-PAGE analysis
Calls of active or inactive are those of the source. The calls are words filed in the database; no cut-off is given here. Residues, ends and D or L forms follow the SMILES beside them.
Use one of these outcomes when replying: TRUE for active, FALSE for inactive

INSERT INTO assay_data (compound, category) VALUES
  ('CC(C)C[C@H](NC(=O)[C@H](Cc1ccc(O)cc1)NC(=O)[C@@H]1CCCN1C(=O)[C@@H]1CCCN1C(=O)[C@H](CCCNC(=N)N)NC(=O)[C@@H]1CCCN1C(=O)[C@H](CCCNC(=N)N)NC(=O)[C@H](CCCNC(=N)N)NC(=O)[C@@H](N)CCCNC(=N)N)C(=O)N1CCC[C@H]1C(=O)N[C@@H](CCCNC(=N)N)C(=O)N[C@@H](Cc1c[nH]c2ccccc12)C(=O)NCC(=O)O (H-RRRPRPPYLPRWG-OH)', 'TRUE');

Next compound, please.
Hey, what did the test say about CC(C)C[C@H](NC(=O)[C@H](Cc1ccc(O)cc1)NC(=O)[C@H](CCCNC(=N)N)NC(=O)[C@H](CCCNC(=N)N)NC(=O)[C@@H](N)CCCNC(=N)N)C(=O)N1CCC[C@H]1C(=O)N[C@@H](CCCNC(=N)N)C(=O)N[C@@H](Cc1c[nH]c2ccccc12)C(=O)NCC(N)=O (H-RRRYLPRWG-NH2) ?
FALSE

----------
system.under.test: Proteasome Macropain subunit MB1 (Homo sapiens) (UniProt P28074)
Sequence (P28074 whole entry): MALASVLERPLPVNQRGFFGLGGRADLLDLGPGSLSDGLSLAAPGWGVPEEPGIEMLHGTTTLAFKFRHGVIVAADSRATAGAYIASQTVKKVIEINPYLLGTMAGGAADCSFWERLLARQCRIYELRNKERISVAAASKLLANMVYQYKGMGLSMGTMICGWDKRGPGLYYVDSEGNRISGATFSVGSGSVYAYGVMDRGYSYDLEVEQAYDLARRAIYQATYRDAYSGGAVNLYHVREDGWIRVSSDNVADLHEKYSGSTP
method.notes: Positive allosteric modulation of latent human erythrocytes 20S proteasome chymotrypsin like activity up to 10 uM using LFP as substrate measured every 2 mins up to 60 mins by fluorescence assay
Calls of active or inactive are those of the source. No cut-off for these calls is given here. Residues, ends and D or L forms follow the SMILES beside them.
result.type: Activity

Solved entries:
INSERT INTO assay_data (molecule, result) VALUES
  ('CC(C)C[C@H](NC(=O)[C@H](Cc1ccc(O)cc1)NC(=O)[C@H](CCCNC(=N)N)NC(=O)[C@H](CCCNC(=N)N)NC(=O)[C@@H](N)CCCNC(=N)N)C(=O)N1CCC[C@H]1C(=O)N[C@@H](CCCNC(=N)N)C(=O)N[C@@H](Cc1c[nH]c2ccccc12)C(=O)NCC(N)=O (H-RRRYLPRWG-NH2)', 'inactive'),
  ('CC(C)C[C@H](NC(=O)[C@H](Cc1ccc(O)cc1)NC(=O)[C@@H]1CCCN1C(=O)[C@@H]1CCCN1C(=O)[C@H](CCCNC(=N)N)NC(=O)[C@@H]1CCCN1C(=O)[C@H](CCCNC(=N)N)NC(=O)[C@H](CCCNC(=N)N)NC(=O)[C@@H](N)CCCNC(=N)N)C(=O)N1CCC[C@H]1C(=O)N[C@@H](CCCNC(=N)N)C(=O)N[C@@H](Cc1ccccc1)C(=O)NCC(=O)O (H-RRRPRPPYLPRFG-OH)', 'inactive'),
  ('CC(C)C[C@H](NC(=O)[C@H](Cc1ccc(O)cc1)NC(=O)[C@@H]1CCCN1C(=O)[C@@H]1CCCN1C(=O)[C@H](CCCNC(=N)N)NC(=O)[C@@H]1CCCN1C(=O)[C@H](CCCNC(=N)N)NC(=O)[C@H](CCCNC(=N)N)NC(=O)[C@@H](N)CCCNC(=N)N)C(=O)N1CCC[C@H]1C(=O)N[C@@H](CCCNC(=N)N)C(=O)N[C@@H](Cc1c[nH]c2ccccc12)C(=O)NCC(N)=O (H-RRRPRPPYLPRWG-NH2)', 'inactive'),
  ('CC(C)C[C@H](NC(=O)[C@H](Cc1ccc(O)cc1)NC(=O)[C@H](CCCNC(=N)N)NC(=O)[C@H](CCCNC(=N)N)NC(=O)[C@@H](N)CCCNC(=N)N)C(=O)N1CCC[C@H]1C(=O)N[C@@H](CCCNC(=N)N)C(=O)N[C@@H](Cc1ccc(O)cc1)C(=O)N[C@@H](C)C(N)=O (H-RRRYLPRYA-NH2)', 'inactive');

Return reported Activity; argument: CC(C)C[C@H](NC(=O)[C@H](Cc1ccc(O)cc1)NC(=O)[C@@H]1CCCN1C(=O)[C@@H]1CCCN1C(=O)[C@H](CCCNC(=N)N)NC(=O)[C@@H]1CCCN1C(=O)[C@H](CCCNC(=N)N)NC(=O)[C@H](CCCNC(=N)N)NC(=O)[C@@H](N)CCCNC(=N)N)C(=O)N1CCC[C@H]1C(=O)N[C@@H](CCCNC(=N)N)C(=O)O (H-RRRPRPPYLPR-OH)
inactive

Let us now turn to CC(C)C[C@H](NC(=O)[C@H](Cc1ccc(O)cc1)NC(=O)[C@@H]1CCCN1C(=O)[C@@H]1CCCN1C(=O)[C@H](CCCNC(=N)N)NC(=O)[C@@H]1CCCN1C(=O)[C@H](CCCNC(=N)N)NC(=O)[C@H](CCCNC(=N)N)NC(=O)[C@@H](N)CCCNC(=N)N)C(=O)N1CCC[C@H]1C(=O)N[C@@H](CCCNC(=N)N)C(=O)N[C@@H](Cc1c[nH]c2ccccc12)C(=O)NCC(=O)O (H-RRRPRPPYLPRWG-OH)
inactive

----------
system.under.test: 20S proteasome (Homo sapiens) (UniProt P49721+P20618+P28074+P28062+P28065+P28072+P25786+P25787+P25788+P25789+P28066+P60900+O14818+Q8TAA3+P40306+A5LHX3+P49720+P28070+Q99436)
method.notes: Negative allosteric modulation of SDS-activated human erythrocytes 20S proteasome assessed as reduction in yeast enolase degradation at 1 uM after 4 hr by SDS-PAGE analysis
Active and inactive are the calls of the source. No cut-off for these calls is given here. Residues, ends and D or L forms follow the SMILES beside them.
Mark one answer only. Choices: Y = active, N = inactive

Look over these answered cases.
INSERT INTO assay_data (molecule, category) VALUES
  ('CC(C)C[C@H](NC(=O)[C@H](Cc1ccc(O)cc1)NC(=O)[C@@H]1CCCN1C(=O)[C@@H]1CCCN1C(=O)[C@H](CCCNC(=N)N)NC(=O)[C@@H]1CCCN1C(=O)[C@H](CCCNC(=N)N)NC(=O)[C@H](CCCNC(=N)N)NC(=O)[C@@H](N)CCCNC(=N)N)C(=O)N1CCC[C@H]1C(=O)N[C@@H](CCCNC(=N)N)C(=O)O (H-RRRPRPPYLPR-OH)', 'N'),
  ('CC(C)C[C@H](NC(=O)[C@H](Cc1ccc(O)cc1)NC(=O)[C@@H]1CCCN1C(=O)[C@@H]1CCCN1C(=O)[C@H](CCCNC(=N)N)NC(=O)[C@@H]1CCCN1C(=O)[C@H](CCCNC(=N)N)NC(=O)[C@H](CCCNC(=N)N)NC(=O)[C@@H](N)CCCNC(=N)N)C(=O)N1CCC[C@H]1C(=O)N[C@@H](CCCNC(=N)N)C(=O)N[C@@H](Cc1ccccc1)C(=O)NCC(=O)O (H-RRRPRPPYLPRFG-OH)', 'Y');

What outcome does the record of this test show for CC(C)C[C@H](NC(=O)[C@H](Cc1ccc(O)cc1)NC(=O)[C@H](CCCNC(=N)N)NC(=O)[C@H](CCCNC(=N)N)NC(=O)[C@@H](N)CCCNC(=N)N)C(=O)N1CCC[C@H]1C(=O)N[C@@H](CCCNC(=N)N)C(=O)N[C@@H](Cc1ccc(O)cc1)C(=O)N[C@@H](C)C(N)=O (H-RRRYLPRYA-NH2) ?
N
